# AUC per entry
test: AUC in rat at 5 mg/kg, po; type: ADME, organism-based; parameters: dose 5 mg/kg, route oral; conditions: plasma
parameter-measured: AUC (ng·h/mL)

1. COC(=O)N[C@H](C(=O)N[C@@H](Cc1ccccc1)C[C@H](O)[C@H](Cc1ccc(-c2cccc(N)c2)cc1)NC(=O)[C@@H](NC(=O)OC)C(C)(C)C)C(C)(C)C = 20
2. COC(=O)N[C@H](C(=O)N[C@@H](Cc1ccccc1)C[C@H](O)[C@H](Cc1ccc(-c2ccccn2)cc1)NC(=O)[C@@H](NC(=O)OC)C(C)(C)C)C(C)(C)C = 190
3. COC(=O)N[C@H](C(=O)N[C@@H](Cc1ccccc1)C[C@H](O)[C@H](Cc1ccc(-c2cccnc2)cc1)NC(=O)[C@@H](NC(=O)OC)C(C)(C)C)C(C)(C)C = 160
4. COC(=O)N[C@H](C(=O)N[C@@H](Cc1ccccc1)C[C@H](O)[C@H](Cc1ccc(-c2cncc(F)c2)cc1)NC(=O)[C@@H](NC(=O)OC)C(C)(C)C)C(C)(C)C = 160
5. COC(=O)N[C@H](C(=O)N[C@@H](Cc1ccccc1)C[C@H](O)[C@H](Cc1ccc(-c2cnc3ccccc3c2)cc1)NC(=O)[C@@H](NC(=O)OC)C(C)(C)C)C(C)(C)C = 30
